From: PubChem BioAssay AID1918947

test system: A498 complex spheroid viability; test: Anticancer human tumor A498 cell line growth inhibition; conditions: second compound 3.16 µM; first compound 0.316 µM; stronger effect = lower value;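 also: spheroids exposed to agents for seven days before readout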;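 as to viability, T/C: 100% = DMSO vehicle-treated spheroids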
property name: viability, T/C (%)
A number alone suffices; assume %.

Task: Report viability, T/C for CC1COCCN1c1cc(C2(S(C)(=N)=O)CC2)nc(-c2ccnc3[nH]ccc23)n1 (configuration not stated) + NC1CC1c1ccc(-c2cccc(O)c2)cc1
Output: 63.9

Task: Respond only with viability, T/C recorded for COc1cc(Nc2ncc3c(n2)-c2ccc(Cl)cc2C(c2c(F)cccc2OC)=NC3)ccc1C(=O)O + NC1CCC(NC2CC2c2ccccc2)CC1
Output: 51

Task: Name the recorded viability, T/C of the molecule listed here: COc1cc(Nc2ncc3c(n2)-c2ccc(Cl)cc2C(c2c(F)cccc2OC)=NC3)ccc1C(=O)O + NC1CC1c1ccc(-c2cccc(O)c2)cc1
Output: 42.2

Task: Indicate its recorded viability, T/C; the molecule in question is COc1ccc([C@@H](O)c2cc(-c3ncnc4cc(N5CCOCC5)ccc34)c(F)cc2Cl)nn1 + NC1CCC(NC2CC2c2ccccc2)CC1
Output: 35.4

Task: Kindly indicate its recorded viability, T/C. Item: O=C(c1cc(Cc2n[nH]c(=O)c3ccccc23)ccc1F)N1CCN(C(=O)C2CC2)CC1 + NC1CCC(NC2CC2c2ccccc2)CC1
Output: 69.5

Task: Provide one value: measured viability, T/C of CC(C)c1c(-c2ccccc2)nc2c(C#N)c[nH]n2c1=O + NC1CC1c1ccc(-c2cccc(O)c2)cc1
Output: 97.5

Task: Given the molecule Nc1ncn(C2CC(O)C(CO)O2)c(=O)n1 (configuration not stated) + NC1CC1c1ccc(-c2cccc(O)c2)cc1 , write its reported viability, T/C.
Output: 75.6

---

For each of the compounds below, state its pIC50.
system: A498 complex spheroid viability; assay: Anticancer human tumor A498 cell line growth inhibition; conditions: curve of compound;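 also: spheroids exposed to agents for seven days before readout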
pIC50: −log10 of the molar value.

Task: Return reported pIC50. Input compound: CC(C)c1c(-c2ccccc2)nc2c(C#N)c[nH]n2c1=O
Output: < 5.00

Task: Fill in reported pIC50 for this entry: CCc1c2c(nc3ccc(O)cc13)-c1cc3c(c(=O)n1C2)COC(=O)[C@]3(O)CC
Output: > 9.02

Task: Return pIC50 (reported value) for this compound: Nc1ncn(C2CC(O)C(CO)O2)c(=O)n1 (configuration not stated)
Output: < 6.00

Task: Using the record for Nc1ccn(C2OC(CO)C(O)C2(F)F)c(=O)n1 (configuration not stated) , state its measured pIC50.
Output: > 9.02

Task: Look up and state reported pIC50 for CCN(c1cc(-c2ccc(CN3CCOCC3)cc2)cc(C(=O)NCc2c(C)cc(C)[nH]c2=O)c1C)C1CCOCC1
Output: < 5.52

Task: Identify pIC50 associated with the compound Cn1ncnc1C1c2n[nH]c(=O)c3cc(F)cc(c23)NC1c1ccc(F)cc1 (configuration not stated)
Output: < 7.00

Task: Please report pIC50 for the following compound: O=C(c1cc(Cc2n[nH]c(=O)c3ccccc23)ccc1F)N1CCN(C(=O)C2CC2)CC1
Output: < 5.00

---

tested on: A498 complex spheroid viability; assay: Anticancer human tumor A498 cell line growth inhibition; conditions: second compound 1 µM; first compound 0.01 µM; active means viability on the fitted dose curve at most 10% of control; inactive means the rest;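 also: spheroids exposed to agents for seven days before readout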
Outcomes you can answer with include only these: active, inactive

Task: Could you please tell me the result logged for COc1cc(Nc2ncc3c(n2)-c2ccc(Cl)cc2C(c2c(F)cccc2OC)=NC3)ccc1C(=O)O + NC1CC1c1ccc(-c2cccc(O)c2)cc1 in this assay?
Output: inactive

Task: For Cn1ncnc1C1c2n[nH]c(=O)c3cc(F)cc(c23)NC1c1ccc(F)cc1 (centres undefined) + NC1CC1c1ccc(-c2cccc(O)c2)cc1 , which call appears in the assay record?
Output: inactive

Task: Entry CC[C@@]1(O)C(=O)OCc2c1cc1n(c2=O)Cc2cc3c(CN(C)C)c(O)ccc3nc2-1 + NC1CCC(NC2CC2c2ccccc2)CC1 : call = ?
Output: inactive

Task: What outcome does the record of this test show for COc1cc(Nc2ncc3c(n2)-c2ccc(Cl)cc2C(c2c(F)cccc2OC)=NC3)ccc1C(=O)O + NC1CCC(NC2CC2c2ccccc2)CC1 ?
Output: inactive

Task: // param item: CC[C@@]1(O)C(=O)OCc2c1cc1n(c2=O)Cc2cc3c(CN(C)C)c(O)ccc3nc2-1 + NC1CC1c1ccc(-c2cccc(O)c2)cc1 ; yields the recorded call
Output: inactive

Task: Lab log entry: CC(C)CC(NC(=O)CNC(=O)c1cc(Cl)ccc1Cl)B1OC(=O)CC(CC(=O)O)(C(=O)O)O1 (centres undefined) + NC1CCC(NC2CC2c2ccccc2)CC1 — outcome as called in the assay?
Output: inactive

Task: Kindly provide the recorded test outcome for the following compound: Cn1ncnc1C1c2n[nH]c(=O)c3cc(F)cc(c23)NC1c1ccc(F)cc1 (centres undefined) + NC1CCC(NC2CC2c2ccccc2)CC1
Output: inactive

Task: Kindly provide the recorded test outcome for the following compound: CC(C)CC(NC(=O)C(Cc1ccccc1)NC(=O)c1cnccn1)B(O)O (centres undefined) + NC1CC1c1ccc(-c2cccc(O)c2)cc1
Output: active

Task: What call does the record list for Nc1ncn(C2CC(O)C(CO)O2)c(=O)n1 (centres undefined) + NC1CCC(NC2CC2c2ccccc2)CC1 ?
Output: inactive
